All values here come from the supplement of paper PMC7125110.

Please go through the items and note down their self-cleavage kobs at 2500 uM GlcN6P.
B1: glmS ribozyme (parent)
chain: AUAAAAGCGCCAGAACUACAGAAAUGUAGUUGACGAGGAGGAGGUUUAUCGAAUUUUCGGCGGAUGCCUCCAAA

Variants of: B1
Assay: self-cleavage kobs at 2500 uM GlcN6P; higher = faster cleavage; RNA array
Conditions: with glucosamine-6-phosphate
Fewer inactive variants are shown than the library holds.
Dear colleague, please return just the value in s⁻¹, with no unit written.

Qu. Fill in the blank: the reported self-cleavage kobs at 2500 uM GlcN6P of A15C G37A U65G is ____.
Ans. 8.59e-05

Qu. // repeat for A12C G37A A52G and report
Ans. 5.63e-05

Qu. // repeat for A15C U45A A64G and report
Ans. 0.00477

Qu. // repeat for G38U C68A and report
Ans. 0.000238

Qu. // repeat for A15U C58G C68U and report
Ans. 6.36e-05

Qu. // repeat for G29C U46G U55G and report
Ans. 3.45e-05
